Target: T1, recombinant human SOST (rhSOST) (human, UniProt Q9BQB4 24-213)
T1 construct: Treated as one molecule; also called recombinant human SOST protein; human sclerostin
T1 sequence: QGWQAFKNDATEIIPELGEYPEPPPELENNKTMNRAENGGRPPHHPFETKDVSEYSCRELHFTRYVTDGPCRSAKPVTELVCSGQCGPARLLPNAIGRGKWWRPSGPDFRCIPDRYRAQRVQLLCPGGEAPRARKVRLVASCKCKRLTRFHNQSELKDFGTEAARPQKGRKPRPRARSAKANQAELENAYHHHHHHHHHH
Assay: SPR Biacore T200, IgG captured via anti-human Fc, rhSOST analyte, 37 C
In this section we review reported koff values for a set of binders.
Output spec: scalar in s⁻¹, unitless text.

Consider the reported koff for these binders:
binder	koff [s⁻¹]
DM31 (antibody, V domains shown, also called mH10/mL19) VH: EVQLLESGGGLVQPGGSLRLSCAASGHTFSDYWMQWVRQAPGKGLEWVGAIYPGDGDTRYNQKFKDRFTISRDNSKNTLYLQMNSLRAEDTAVYYCARSMDYWGQGTLVTVSS VL: DIVMTQSPDSLAVSLGERATINCRASKTVDSYGNSFMHWYQQKPGQPPKLLIYHSSNLESGVPDRFSGSGSGTDFTLTISSLQAEDVAVYYCLQTIEDSYTFGQGTKLEIK	0.00171
DM32 (antibody, V domains shown, also called mH11/mL2) VH: EVQLLESGGGLVQPGGSLRLSCAASGFTFSDYWMQWVRQAPGKGLEWVGAIYPGDGDTRYNQKFKDRFTISRDNSKNTLYLQMNSLRAEDTAVYYCARSMDYWGQGTLVTVSS VL: DIVMTQSPDSLAVSLGERATINCRASKTVDSYGNSFMHWFQQKPGQPPKLLIYHSSNLESGVPDRFSGSGSGTDFTLTISSLQAEDVAVYYCLQTIEDPYTFGQGTKLEIK	0.000419
DM9 (antibody, V domains shown, also called mH10/mL18) VH: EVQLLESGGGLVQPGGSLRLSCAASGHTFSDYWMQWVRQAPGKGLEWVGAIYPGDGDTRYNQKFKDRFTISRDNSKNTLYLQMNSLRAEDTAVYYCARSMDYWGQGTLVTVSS VL: DIVMTQSPDSLAVSLGERATINCRASKTVDSYGSNFMHWYQQKPGQPPKLLIYHSSNLESGVPDRFSGSGSGTDFTLTISSLQAEDVAVYYCLQTIEHPYTFGQGTKLEIK	0.00434

Identify the reported koff for the following entry. DM17 (antibody, V domains shown, also called wt/mL6) VH: EVQLLESGGGLVQPGGSLRLSCAASGHTFTDYWMQWVRQAPGKGLEWIGAIYPGDGDTRYNQKFKDRFTISRDNSKNTLYLQMNSLRAEDTAVYYCARSMDYWGQGTLVTVSS VL: DIVMTQSPDSLAVSLGERATINCRASKTVDSYGNSFMHWFQQKPGQPPKLLIHHSSNLESGVPDRFSGSGSGTDFTLTISSLQAEDVAVYYCLQTIEDSYTFGQGTKLEIK
0.000207
